- TGT: KRas G12D (Homo sapiens (Human), UniProt P01116, G12D)
- EXPERIMENT DESCRIPTION: KRas G12D Surface Plasmon Resonance (SPR) Binding Assay
- CONDITION DETAILS: Biacore T200, immobilized biotinylated KRAS protein, 1:1 binding model
- Sequence (P01116-2 other isoform, or with tags, fused parts or gaps G12D): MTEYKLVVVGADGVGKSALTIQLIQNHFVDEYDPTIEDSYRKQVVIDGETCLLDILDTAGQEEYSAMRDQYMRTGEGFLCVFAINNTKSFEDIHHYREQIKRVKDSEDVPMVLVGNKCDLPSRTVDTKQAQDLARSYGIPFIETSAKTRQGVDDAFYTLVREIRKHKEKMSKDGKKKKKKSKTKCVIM
pKd: −log10 of the molar value.

| MOLECULE | TGT | pKd |
| --- | --- | --- |
| Fc1c(-c2cccc3cccc(Cl)c23)ncc2c(N3CC4CC(F)C(C3)N4)nc(OC[C@@]34CCCN3C[C@H](F)C4)nc12 (stereo partly shown) | KRas G12D (Homo sapiens (Human), UniProt P01116, G12D) | 7.46 |
| OC[C@@H](O)COc1nc(N2C[C@H]3CC[C@@H](C2)N3)c2cnc(-c3cccc4cccc(Cl)c34)c(F)c2n1 | KRas G12D (Homo sapiens (Human), UniProt P01116, G12D) | 5.29 |
| Oc1cc(-c2ncc3c(N4C[C@H]5CC[C@@H](C4)N5)nc(N4CC5(CCOC5)C4)nc3c2F)c2ccccc2c1 | KRas G12D (Homo sapiens (Human), UniProt P01116, G12D) | 6.71 |
| Cn1cncc1COc1nc(N2C[C@H]3CC[C@@H](C2)N3)c2cnc(-c3cc(O)cc4ccccc34)c(F)c2n1 | KRas G12D (Homo sapiens (Human), UniProt P01116, G12D) | 5.95 |
| Oc1cc(-c2ncc3c(N4C[C@H]5CC[C@@H](C4)N5)nc(N4CC5(CCOCC5)C4)nc3c2F)c2ccccc2c1 | KRas G12D (Homo sapiens (Human), UniProt P01116, G12D) | 6.85 |
| Oc1cc(-c2ncc3c(N4C[C@H]5CC[C@@H](C4)N5)nc(OCCCN4CCOCC4)nc3c2F)c2ccccc2c1 | KRas G12D (Homo sapiens (Human), UniProt P01116, G12D) | 7.71 |
| COCCOc1nc(N2C[C@H]3CC[C@@H](C2)N3)c2cnc(-c3cc(O)cc4ccccc34)c(F)c2n1 | KRas G12D (Homo sapiens (Human), UniProt P01116, G12D) | 6.38 |

* * *

Documented Kd across a set of compounds
- TGT: KRas G12D (Homo sapiens (Human), UniProt P01116, G12D)
- EXPERIMENT DESCRIPTION: KRas G12D Surface Plasmon Resonance (SPR) Binding Assay
- CONDITION DETAILS: Biacore T200, immobilized biotinylated KRAS protein, 1:1 binding model
Structures can show the parent of a compound that is named as a salt.
MEASURED QUANTITY: Kd (nM)

| COMPOUND | TGT | DATA VALUE |
| --- | --- | --- |
| CO[C@@H]1CN2CCC[C@]2(COc2nc(N3C[C@H]4CC[C@@H](C3)N4)c3cnc(-c4cccc5cccc(Cl)c45)c(F)c3n2)C1 [Example 219, bis-hydrochloride] | KRas G12D (Homo sapiens (Human), UniProt P01116, G12D) | 8.1 |
| CN1CCC[C@H]1COc1nc(N2C[C@H]3CC[C@@H](C2)N3)c2cnc(-c3cccc4ccccc34)c(F)c2n1 [Example 20] | KRas G12D (Homo sapiens (Human), UniProt P01116, G12D) | 967 |
| Cn1ccnc1CCOc1nc(N2C[C@H]3C[C@@H](O)[C@@H](C2)N3)c2cnc(-c3cccc4cccc(Cl)c34)c(F)c2n1 [Example 173] | KRas G12D (Homo sapiens (Human), UniProt P01116, G12D) | 117 |
| CN(C)C(=O)CCOc1nc(N2C[C@H]3CC[C@@H](C2)N3)c2cnc(-c3cc(O)cc4ccccc34)c(F)c2n1 [Example 13] | KRas G12D (Homo sapiens (Human), UniProt P01116, G12D) | 511 |
| CN1C[C@H](F)C[C@H]1COc1nc(N2C[C@H]3CC[C@@H](C2)N3)c2cnc(-c3cccc4cccc(Cl)c34)c(F)c2n1 [Example 115] | KRas G12D (Homo sapiens (Human), UniProt P01116, G12D) | 333000 |
| Cn1nccc1COc1nc(N2C[C@H]3CC[C@@H](C2)N3)c2cnc(-c3cc(O)cc4ccccc34)c(F)c2n1 [Example 5] | KRas G12D (Homo sapiens (Human), UniProt P01116, G12D) | 295 |
| Oc1cc(-c2ncc3c(N4C[C@H]5CC[C@@H](C4)N5)nc(OCC(F)(F)C(F)F)nc3c2F)c2ccccc2c1 [Example 52] | KRas G12D (Homo sapiens (Human), UniProt P01116, G12D) | 507 |

* * *

- TGT: KRas G12D (Homo sapiens (Human), UniProt P01116, G12D)
- EXPERIMENT DESCRIPTION: KRas G12D Binding Assay (TR-FRET displacement of Cy5 labelled tracer)
- CONDITION DETAILS: GDP-loaded KRAS G12D (amino acids 1:169), 60 minute incubation at 22° C.
- Sequence (P01116 other isoform, or with tags, fused parts or gaps G12D): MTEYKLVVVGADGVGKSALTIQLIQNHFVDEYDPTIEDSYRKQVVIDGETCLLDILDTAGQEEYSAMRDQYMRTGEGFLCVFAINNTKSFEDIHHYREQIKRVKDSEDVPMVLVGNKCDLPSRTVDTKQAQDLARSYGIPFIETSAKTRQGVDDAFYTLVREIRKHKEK
Threshold-based label: IC50 under 300 nM gives satisfied, IC50 not under 300 nM gives not satisfied.

| MOLECULE | QUALITATIVE LABEL |
| --- | --- |
| NC(=O)Cc1cccc2cccc(-c3ncc4c(N5C[C@H]6CC[C@@H](C5)N6)nc(OCC56CCCN5CCC6)nc4c3F)c12 [Example 240] | not satisfied |
| CCNc1c(F)cccc1-c1ncc2c(N3C[C@H]4CC[C@@H](C3)N4)nc(OCC34CCCN3CCC4)nc2c1F [Example 269] | not satisfied |
| O[C@@H]1C[C@@H]2CN(c3nc(OC[C@@]45CCCN4C[C@H](F)C5)nc4c(F)c(-c5cccc6cccc(Cl)c56)ncc34)C[C@H]1N2 [Example 395] | satisfied |
| CCc1cccc2cccc(-c3ncc4c(N5CC6CCC(C5)N6)nc(OC[C@]56CCCN5[C@@H](COC(=O)N5CCOCC5)CC6)nc4c3F)c12 (single isomer, unassigned) [Example 431] | satisfied |
| Fc1c(-c2cccc3cccc(Cl)c23)ncc2c(N3C[C@H]4CC[C@@H](C3)N4)nc(OCCn3cccn3)nc12 [Example 147] | not satisfied |
| CN1CC(COc2nc(N3C[C@H]4CC[C@@H](C3)N4)c3cnc(-c4cccc5cccc(Cl)c45)c(F)c3n2)CC1=O (stereo partly drawn) [Example 131] | not satisfied |

* * *

- TGT: KRas G12D (Homo sapiens (Human), UniProt P01116, G12D)
- EXPERIMENT DESCRIPTION: KRas G12D Surface Plasmon Resonance (SPR) Binding Assay
- CONDITION DETAILS: Biacore T200, immobilized biotinylated KRAS protein, 1:1 binding model
pKd: −log10 of the molar value.
MEASURED QUANTITY: pKd

| MOLECULE | MEASURED QUANTITY | DATA VALUE |
| --- | --- | --- |
| CN1CCC[C@H]1COc1nc(N2CC3CCC(C2)N3)c2cnc(-c3cccc4c3CCC4O)c(F)c2n1 (stereo partly drawn) | pKd | 3.43 |
| Fc1c(-c2cccc3cccc(Cl)c23)ncc2c(N3C[C@H]4CC[C@@H](C3)N4)nc(OCC34CCCN3CCC4)nc12 | pKd | 8.29 |
| Oc1cc(-c2ncc3c(N4C[C@H]5CC[C@@H](C4)N5)nc(N4CCCC4)nc3c2F)c2ccccc2c1 [Example 118, 2,2,2-trifluoroacetate] | pKd | 5.97 |
| Oc1cc(-c2ncc3c(N4C[C@H]5CC[C@@H](C4)N5)nc(OC[C@@H]4CC5CCN4C5)nc3c2F)c2ccccc2c1 | pKd | 8.77 |
| O=S1(=O)CCC(Oc2nc(N3C[C@H]4CC[C@@H](C3)N4)c3cnc(-c4cc(O)cc5ccccc45)c(F)c3n2)CC1 | pKd | 6.86 |
| Fc1c(-c2cccc3ccccc23)ncc2c(N3C[C@H]4CC[C@@H](C3)N4)nc(OC[C@@H]3CCCN3Cc3ccccc3)nc12 | pKd | 4.20 |

* * *

- TGT: KRas G12D (Homo sapiens (Human), UniProt P01116, G12D)
- EXPERIMENT DESCRIPTION: KRas G12D Binding Assay (TR-FRET displacement of Cy5 labelled tracer)
- CONDITION DETAILS: GDP-loaded KRAS G12D (amino acids 1:169), 60 minute incubation at 22° C.
Flag rule - IC50 less than 300 nM flags Y; the remaining entries get N.

| COMPOUND | QUALITATIVE LABEL |
| --- | --- |
| Oc1cc(-c2ncc3c(N4CC5CCC(C4)N5)nc(OCCN4C[C@@H]5C[C@H]4CO5)nc3c2F)c2ccccc2c1 [Example 461] | Y |
| C#Cc1cccc2cncc(-c3ncc4c(N5C[C@H]6CC[C@@H](C5)N6)nc(OC[C@]56CCCN5C[C@@H](F)C6)nc4c3F)c12 [Example 204] | Y |
| Fc1c(-c2ccccc2C2CC2)ncc2c(N3C[C@H]4CC[C@@H](C3)N4)nc(OCC34CCCN3CCC4)nc12 [Example 297] | Y |
| COC(=O)NC[C@H]1CC[C@@]2(COc3nc(N4CC5CCC(C4)N5)c4cnc(-c5cccc6cccc(Cl)c56)c(F)c4n3)CCCN12 [Example 411] | Y |
| Fc1c(-c2ccccc2Cl)ncc2c(N3C[C@H]4CC[C@@H](C3)N4)nc(OCC34CCCN3CCC4)nc12 [Example 310] | N |
| Cn1nccc1COc1nc(N2C[C@H]3CC[C@@H](C2)N3)c2cnc(-c3cc(O)cc4ccccc34)c(F)c2n1 [Example 5] | N |
| OCC(COc1nc(N2C[C@H]3CC[C@@H](C2)N3)c2cnc(-c3cccc4cccc(Cl)c34)c(F)c2n1)c1cccnc1 (stereo partly shown) [Example 59] | N |
| Fc1c(-c2cccc3cccc(Cl)c23)ncc2c(N3C[C@H]4CC[C@@H](C3)N4)nc(OCC34CC(F)CN3CC(F)C4)nc12 (stereo partly shown) [Example 425] | Y |
| Fc1c(-c2cccc3cccc(Cl)c23)ncc2c(N3CC4CCC(C3)N4)nc(OC[C@@H]3CC(F)(F)CN3)nc12 [Example 352, bis(2,2,2-trifluoroacetate)] | N |
| CN1C[C@H](NC(=O)c2ccc(C=O)cc2)C[C@H]1COc1nc(N2C[C@H]3CC[C@@H](C2)N3)c2cnc(-c3cccc4cccc(Cl)c34)c(F)c2n1 [Example 353] | N |
| Nc1cccc(F)c1-c1ncc2c(N3C[C@H]4CC[C@@H](C3)N4)nc(OCC34CCCN3CCC4)nc2c1F [Example 265] | N |
| CN1CCCC1(CO)COc1nc(N2C[C@H]3CC[C@@H](C2)N3)c2cnc(-c3cccc4ccccc34)c(F)c2n1 (stereo partly shown) [Example 323] | N |
| Oc1cc(-c2ncc3c(N4C[C@H]5CC[C@@H](C4)N5)nc(N4CCC4)nc3c2F)c2ccccc2c1 [Example 119, 2,2,2-trifluoroacetate] | N |
